# Subject Of Test: T1, Arabidopsis copper chaperone CCH (Arabidopsis thaliana, UniProt O82089 1-121, AlexaFluor 488 label)
# T1 construct: Copper chaperone CCH, Arabidopsis thaliana
# T1 sequence (looked up): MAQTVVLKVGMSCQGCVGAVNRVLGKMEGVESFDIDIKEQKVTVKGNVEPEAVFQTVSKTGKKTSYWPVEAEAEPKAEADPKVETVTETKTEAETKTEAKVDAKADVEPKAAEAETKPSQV
# Protocol Description: MST; AlexaFluor488-labelled ATX1 or CCH 100 nM, MBDs titrated (MBD1 300 µM to 0.19 nM, MBD2 100 µM to 0.19 nM, MBD3 100 µM to 0.06 nM); 300 mM NaCl, 50 mM HEPES pH 7.2 with Tween20 and glycerol; room temperature; initial fluorescence analysed; one-site binding model; apparent KD
# Study Conditions: both partners purified
Measurement Label: Kd (nM)

{"Binder": "RAN1 metal binding domain 2 (MBD2) (domain or fragment, Arabidopsis thaliana, UniProt Q9S7J8 132-207, looked up, Copper-transporting P-type ATPase RAN1 (HMA7), Arabidopsis thaliana, MBD2, AA 132-207; Cloned into pETEV16b (pET-16b derivative with a TEV site); no tag cleavage is described; also called HMA7 MBD2; source: E. coli BL21 Gold (DE3), purified (Ni-NTA IMAC, SEC)) TLVGQFTIGGMTCAACVNSVEGILRDLPGVKRAVVALSTSLGEVEYDPNVINKDDIVNAIEDAGFEGSLVQSNQQD", "Numeric Result": 2280}
{"Binder": "RAN1 metal binding domain 1 (MBD1) (domain or fragment, Arabidopsis thaliana, UniProt Q9S7J8 55-130, looked up, Copper-transporting P-type ATPase RAN1 (HMA7), Arabidopsis thaliana, MBD1, AA 55-130; Cloned into pETEV16b (pET-16b derivative with a TEV site); no tag cleavage is described; also called HMA7 MBD1; source: E. coli BL21 Gold (DE3), purified (Ni-NTA IMAC, SEC)) LRKIQVGVTGMTCAACSNSVEAALMNVNGVFKASVALLQNRADVVFDPNLVKEEDIKEAIEDAGFEAEILAEEQTQ", "Numeric Result": 3160}
{"Binder": "RAN1 degenerate metal binding domain 3 (MBD3) (domain or fragment, Arabidopsis thaliana, UniProt Q9S7J8 205-283, looked up, Copper-transporting P-type ATPase RAN1 (HMA7), Arabidopsis thaliana, MBD3, AA 205-283; Cloned into pETEV16b; also called HMA7 MBD3; source: E. coli BL21 Gold (DE3), purified (Ni-NTA IMAC, SEC); not shown: His tag (deca-histidine), N-terminal, kept) QQDKLVLRVDGILNELDAQVLEGILTRLNGVRQFRLDRISGELEVVFDPEVVSSRSLVDGIEEDGFGKFKLRVMSPYER", "Numeric Result": 88.5}

Just for reference, paper PMC12586476 is where these values come from.
